Data credit: PubChem BioAssay (NCI)

measurement_description: NCI Yeast Anticancer Drug Screen. Data for the mlh1 rad18 strain (AID 175)
condition_parameters: S. cerevisiae mlh1 rad18 strain growth inhibition; at 50.0 µM; active compounds read high
Description: Growth inhibition of yeast strains with defined genetic alterations is measured as a screen for potential anti-cancer activity. Selected strains with alterations in DNA damage repair or cell cycle control were exposed to compounds and growth inhibition was measured relative to vehicle treated controls. The strain used in this assay is mlh1 rad18
This is part of a sample that, as a whole, favours compounds with a hit. Of some 79,000 tested, about 15% had one in any assay. Calls of active or inactive are those of the source. Rule as the data show it: active = growth inhibition above about 70%; inactive = the rest.
Recorded growth inhibition for the following compounds

Some solved cases for reference:
>  <compound>
[N-]=[N+]=Nc1ccccc1C(=O)NCCNC(=O)c1ccccc1N=[N+]=[N-]

>  <measured_property>
growth inhibition

>  <data_value>
6.75% (inactive)

$$$$
>  <compound>
NC(=O)CN(CC(N)=O)CC(N)=O

>  <measured_property>
growth inhibition

>  <data_value>
-7.9% (inactive)

$$$$
>  <compound>
CCOC(=O)/C(C#N)=C\Nc1ccc(C)cc1

>  <measured_property>
growth inhibition

>  <data_value>
-8.75% (inactive)

$$$$

(Q) Name the recorded growth inhibition for COC(=O)C1CC=CCCC1=O (stereo not drawn) .
(A) 5.65% (inactive)

(Q) Which growth inhibition is listed for CCCC1SCC(C)(C)NC1=O (stereo not drawn) ?
(A) -2.4% (inactive)

(Q) // lookup growth inhibition for "O=C1C(=Cc2cccnc2)C(=O)c2ccccc21"
(A) 9% (inactive)

(Q) Fill blank: measured growth inhibition of the compound "O=c1[nH]c2nc(Cl)nc(Cl)c2[nH]1" is ____.
(A) 45% (inactive)

(Q) Look at this compound and give its reported growth inhibition. "Nc1cnc2ccccc2c1"
(A) -4.1% (inactive)

(Q) Reported growth inhibition for "C/C(CC(c1ccccc1)c1ccccc1)=N\Nc1ccc([N+](=O)[O-])cc1[N+](=O)[O-]" : what is it?
(A) 8.55% (inactive)

* * *

measurement_description: NCI Yeast Anticancer Drug Screen. Data for the sgs1 mgt1 strain (AID 161);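 also: 0% = growth of cultures given vehicle only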
condition_parameters: S. cerevisiae sgs1 mgt1 strain, at 50.0 µM, active compounds read high
Compounds without any hit were thinned out: in the full panel of roughly 79,000, 15% have a hit.
Mark Criterion met for reported growth inhibition of 10% or greater; mark Criterion not met for anything smaller.

Worked examples, 5 compounds total:
>  <compound>
Clc1ccc(C=NC23CC4CC(CC(C4)C2)C3)cc1Cl

>  <group>
Criterion not met

$$$$
>  <compound>
Cc1ccc(C)c(NC(=O)/C=N/O)c1

>  <group>
Criterion met

$$$$
>  <compound>
Cc1ccc(C)c2c(Cl)c3c(C)ccc(C)c3nc12

>  <group>
Criterion not met

$$$$
>  <compound>
O=C1c2ccccc2C(O)(C#Cc2ccccc2)c2c1c(-c1ccccc1)c1ccccc1c2-c1ccccc1 (centres undefined)

>  <group>
Criterion met

$$$$
>  <compound>
N=c1ccc2nc(N)nn(O)c-2c1

>  <group>
Criterion not met

$$$$

For the next question, use this compound.
(Q) Please check the record "CCOC(=O)/C=C(\C)c1ccc(OC)cc1" and state if its growth inhibition is at or above 10%.
(A) Criterion not met

* * *

measurement_description: NCI Yeast Anticancer Drug Screen. Data for the cln2 rad14 strain (AID 165);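 also: 0% = growth equal to vehicle treated cultures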
condition_parameters: S. cerevisiae cln2 rad14 strain, at 50.0 µM, active compounds read high
Compounds without any hit were thinned out: in the full panel of roughly 79,000, 15% have a hit.
Listed here: items and their measured growth inhibition.
The response must be a number in % with no trailing unit.

Study these solved cases before continuing.
>  <molecule>
c1csc(C2N3CCN(CC3)C(c3cccs3)N3CCN2CC3)c1 (stereo not drawn)

>  <measured_property>
growth inhibition

>  <units_text>
%

>  <data_value>
10.1

$$$$
>  <molecule>
N=C1C(O)C2(I)c3ccccc3N3C(=N)C(O)C4c5ccccc5N1C4C32 (stereo not drawn)

>  <measured_property>
growth inhibition

>  <units_text>
%

>  <data_value>
-5.8

$$$$

Let us move to another entry and its growth inhibition.
(Q) Quick check: growth inhibition of N#CC(CC(=O)c1ccccc1)c1ccccc1 (stereo not drawn) ?
(A) -28.9
